- Test system: SK-MEL-5 melanoma
- testProtocol: NCI tumour cell line growth inhibition, 384-well format
measureName: TGI
Returns: string containing the number followed by the unit.

Use these answered entries as a reference point.
                                  smilesstr      assayedsystem   result
0  O=C(CCCCCCNC(=O)c1cnc(N(c2ccccc2)c2ccccc2)nc1)NO  SK-MEL-5 melanoma  4160 nM
1  CC[C@@H]1c2c(C#N)ncn2-c2cnc(Nc3ccc(C(=O)NC4CCN(C5CCN(CC6CC6)CC5)CC4)cc3OC)nc2N1C1CCCC1  SK-MEL-5 melanoma  65.6 nM
2  CN(CCO)CC[C@H](CSc1ccccc1)Nc1ccc(S(=O)(=O)NC(=O)c2ccc(N3CCC([C@@H](O)c4ccccc4-c4ccc(Cl)cc4)CC3)cc2)cc1S(=O)(=O)C(F)(F)F  SK-MEL-5 melanoma  6320 nM

Entry under review: CCN(Cc1cc(Nc2nc(C)cn3c(-c4cn[nH]c4)cnc23)sn1)C(C)(C)CO . Reported TGI?
537 nM
